B1: Ribonuclease, P00648 (parent)
chain: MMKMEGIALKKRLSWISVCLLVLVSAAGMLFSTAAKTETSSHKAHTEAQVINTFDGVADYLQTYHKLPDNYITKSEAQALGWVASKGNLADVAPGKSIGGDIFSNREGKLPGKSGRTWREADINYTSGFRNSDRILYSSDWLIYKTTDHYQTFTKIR

- Variants of: B1
- condition.description: Bacillus amyloliquefaciens; pH 6.3; 25 °C; Urea; Fluorescence; MES 100 mM; reversible: yes; structure 1BNI; whole UniProt chain shown

variant.annotation | ddG of mutation (higher = less stable) / kcal/mol
R116S | 2.72
R130K | 4.13
D140N | 4.11
R116M | 2.12
R130Q | 2.05
D122N | 4.8

Value source: FireProtDB (doi:10.1021/bi952930e)
